# assay.target: human α7 nAChR (Homo sapiens (Human))
# Sequence (P36544 23-502): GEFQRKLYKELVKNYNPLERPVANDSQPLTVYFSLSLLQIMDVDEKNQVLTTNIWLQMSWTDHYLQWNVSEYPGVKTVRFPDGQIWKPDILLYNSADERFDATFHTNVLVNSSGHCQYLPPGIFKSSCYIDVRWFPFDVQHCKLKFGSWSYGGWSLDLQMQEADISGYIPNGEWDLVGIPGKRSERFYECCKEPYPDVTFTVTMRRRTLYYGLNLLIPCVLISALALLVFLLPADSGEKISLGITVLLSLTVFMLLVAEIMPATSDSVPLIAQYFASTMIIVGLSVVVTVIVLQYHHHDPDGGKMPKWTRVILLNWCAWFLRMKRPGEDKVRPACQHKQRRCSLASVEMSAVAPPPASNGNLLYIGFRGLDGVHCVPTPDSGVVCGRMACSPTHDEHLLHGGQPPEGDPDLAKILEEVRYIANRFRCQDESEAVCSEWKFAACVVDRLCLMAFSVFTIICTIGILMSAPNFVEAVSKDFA
# procedure.summary: Automated patch-clamp electrophysiology functional assay (Assay A)
# Type: cell-based
# setup.conditions: electrophysiology EC50 values; IonFlux HT whole-cell population patch, HEK cells expressing human α7/RIC-3, 40 μM acetylcholine
# Procedure: The α7 nAChR positive allosteric modulator (PAM) activity of the present compounds may be tested using assays known in the art. […] The compounds were assessed for their ability to modulate the function of the human α7 nAChR stably expressed in a HEK cell line both in the presence, and in the absence of the natural α7 agonist acetylcholine. By performing a series of such measurements at different concentrations, the effective concentration of the α7 nAChR PAMs (EC50) was determined. […]
experimental.endpoint: EC50 (nM)

compound: O=C(NCc1cccs1)C1C2Oc3ccc(F)cc3C21 (stereo not drawn)
EC50 / nM: 970

compound: O=C(N[C@@H](C(F)F)C1CCCCC1)C1C2COc3ccccc3C21 (stereo partly drawn)
EC50 / nM: 570

compound: O=C(NCc1cc(Cl)ccc1F)C1C2Oc3ccc(F)cc3C21 (stereo not drawn)
EC50 / nM: 810

compound: O=C(NCc1nnc(-c2ccccc2)o1)C1C2Oc3ccc(F)cc3C21 (stereo not drawn)
EC50 / nM: 480

compound: C[C@H](NC(=O)C1C2Oc3ccc(F)cc3C21)c1cccc2ncccc12 (stereo partly drawn)
EC50 / nM: 1300

P. CCOc1ccc([C@H](COC)NC(=O)C2C3Oc4cc(OC)ccc4C32)cc1 (stereo partly drawn)
Q. CCOc1ccc([C@@H](NC(=O)C2C3COc4ccc(F)cc4C32)C(F)(F)F)cn1 (stereo partly drawn)
R. COC(=O)[C@@H](NC(=O)C1C2Oc3ccc(F)cc3C21)c1cccc(F)c1 (mixture of isomers)
S. O=C(NCc1nc(Cc2ccccc2)no1)C1C2Oc3ccc(F)cc3C21 (stereo not drawn)
IN: Sort (4 compounds) by EC50: min first. Record the ranking as a list of labels in the requested order.
OUT: P, Q, R, S
(P: 630 nM, Q: 1100 nM, R: 3500 nM, S: 6600 nM)

Where these numbers come from: patent US20240368109A1
